# Tested System: DrOTOP1 I565W (Danio rerio, UniProt Q7ZWK8, I565W)
# Construct: A previously generated codon-optimized full-length DrOTOP1[8]; (UniProt: Q7ZWK8) construct; expressed in transfected cells; host or cells: HEK-293 (CRL-1573, ATCC)
# Sequence (Q7ZWK8 whole entry I565W): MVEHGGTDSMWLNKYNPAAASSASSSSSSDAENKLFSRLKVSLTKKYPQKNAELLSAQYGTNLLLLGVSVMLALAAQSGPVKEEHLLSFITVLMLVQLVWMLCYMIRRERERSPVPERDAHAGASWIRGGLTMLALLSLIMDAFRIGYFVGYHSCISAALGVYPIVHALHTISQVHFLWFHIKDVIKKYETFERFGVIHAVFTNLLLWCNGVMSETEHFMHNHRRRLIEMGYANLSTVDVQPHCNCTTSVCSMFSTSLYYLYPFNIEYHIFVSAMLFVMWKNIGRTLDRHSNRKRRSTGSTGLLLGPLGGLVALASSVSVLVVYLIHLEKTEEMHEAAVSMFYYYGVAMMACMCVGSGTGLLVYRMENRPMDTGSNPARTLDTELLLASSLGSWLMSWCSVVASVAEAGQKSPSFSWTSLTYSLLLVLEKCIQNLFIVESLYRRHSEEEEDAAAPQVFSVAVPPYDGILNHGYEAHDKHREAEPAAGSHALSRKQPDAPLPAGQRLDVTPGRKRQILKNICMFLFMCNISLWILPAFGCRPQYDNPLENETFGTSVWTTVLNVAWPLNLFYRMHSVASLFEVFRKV
# Protocol: Whole-cell patch-clamp, inhibition of acid-evoked currents, DrOTOP1 I565W (C-domain pocket)
# Assay type: cell-based, zebrafish (Danio rerio)
# Particulars: best-fit, Top 100, Bottom 0, Supp. Fig 5G, read-out: AbsoluteIC50
Value Kind: pIC50
The quantity pIC50 is defined as the negative base-10 logarithm of the molar concentration.

QUERY: Indicate the recorded pIC50 value for this compound: C=C(C)COc1ccccc1NC(=O)c1nc[nH]c1C
RESULT: 4.08
